Listing: 100 nM huCB1-GFP-SMALP binding (normalized to 10D10N35Y) of selected binders
Target: T1, GFP-fused huCB1-SMALP (human CB1 in styrene maleic acid lipoparticles) (human, UniProt P21554 1-472)
T1 construct: Prepared as in Luna V. et al. 2018; also called huCB1-GFP-SMALP; wtCB1-SMALP; not shown: GFP fusion
T1 sequence (P21554 whole entry, the tested form may be a part): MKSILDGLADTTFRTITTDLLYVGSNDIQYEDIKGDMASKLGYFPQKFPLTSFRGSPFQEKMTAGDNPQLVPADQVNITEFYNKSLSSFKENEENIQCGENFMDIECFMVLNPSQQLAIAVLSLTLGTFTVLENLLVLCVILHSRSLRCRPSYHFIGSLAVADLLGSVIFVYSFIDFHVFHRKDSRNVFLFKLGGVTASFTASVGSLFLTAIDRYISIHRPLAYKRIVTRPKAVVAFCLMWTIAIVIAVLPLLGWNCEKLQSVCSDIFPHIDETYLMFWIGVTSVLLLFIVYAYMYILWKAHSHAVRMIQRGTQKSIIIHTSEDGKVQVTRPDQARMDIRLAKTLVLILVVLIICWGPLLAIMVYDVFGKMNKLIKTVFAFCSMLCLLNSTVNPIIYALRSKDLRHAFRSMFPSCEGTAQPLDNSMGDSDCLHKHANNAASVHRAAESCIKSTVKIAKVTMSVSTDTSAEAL
Assay: flow cytometry, yeast-displayed IgG, GFP MFI
measured-endpoint: 100 nM huCB1-GFP-SMALP binding (normalized to 10D10N35Y) (fold)

INSERT INTO results (binder, readout_value) VALUES
  ('LIBC527869-1 (antibody, V domains shown, also called LIBC527869-1 + VK1 germline fix(es)) VH: QVQLQESGPGLVKPSQTLSLTCTVSGGNIRRGGDYWAWIRQHPGKGLEWIGHIYHTGKTNYNPSFKGRATISVKTYKNQFSLKLSSVTAADTAVYYCARNYDTLSGNSYYYYGMDVWGQGTTVTVSS VL: DIQLTQSPSTLSASVGDRVTITCRASQSISNYLNWYQQKPGKAPKLLIYAASSLHSGVPSRFSGSGSGTDFTLTISSLQPEDFASYYCQQYQSYPLTFGQGTKVEIKR', 3.61),
  ('LIBC527912-1 (antibody, V domains shown) VH: QVQLQESGPGLVKPSQTLSLTCTVSGGSIRRGGDYWSWIRQHPGKGLEWIGYIYQTGQTKYNPNFEGRATISVNTYKNQFSLKLSSVTAADTAVYYCARDYDILTGYSYYYYGMDVWGQGTTVTVSS VL: DIQLTQSPSSLSASVGDRVTITCRASQSISSYLNWYQQKPGKAPKLLIYAASSLRSGVPSRFSGSGSGTDFTLTISSLQPEDFATYYCQQYSNYPLTFGGGTRVEIKR', 4.32),
  ('LIBC527968-1 (antibody, V domains shown, also called LIBC527968-1 + VK1 germline fix(es)) VH: QVQLQESGPGLVKPSQTLSLTCTVSGGSIRRGGDYWSWIRQHPGKGLEWIGHIYQSGSTKYNPSFKDRATISVNTYKNQFSLKLSSVTAADTAVYYCARDYDILTGYSYYYYGMDVWGQGTTVTVSS VL: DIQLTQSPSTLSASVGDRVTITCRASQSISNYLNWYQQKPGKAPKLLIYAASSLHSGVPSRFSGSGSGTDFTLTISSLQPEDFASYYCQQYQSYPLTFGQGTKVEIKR', 4.65),
  ('LIBC527919-1 (antibody, IgG1, V domains shown) VH: QVQLQESGPGLVKPSQTLSLTCTVSGGSIRRGGDYWAWIRQHPGKGLEWIGHVYQTGSTAYNPNFKDRATISVNTYKNQFSLKLSSVTAADTAVYYCARNYDALSGYSYYYYGMDVWGQGTTVTVSS VL: DIQLTQSPSSLSASVGDRVTITCRASQSIISYLNWYQQKPGKAPKLLIYAASSLRSGVPSRFSGSGSGTDFTLTISSLQPEDFATYYCQQYSNYPLTFGGGTRVEIKR', 4.15),
  ('LIBC527814-1 (antibody, IgG1, V domains shown) VH: QVQLQESGPGLVKPSQTLSLTCTVSGGSIRRGGDYWGWIRQHPGKGLEWIGHVYQTGSTKYNPSFKDRATISVNTYKNQFSLKLSSVTAADTAVYYCARNYDTLTGYSYYYYGMDVWGQGTTVTVSS VL: DIQMTQSPSTLSASVGDRVTITCRASQSISNYLNWYQQKPGKAPKLLIYAASSLHSGVPSRFSGSGSGTDFTLTISSLQPEDFASYYCQQYQSYPLTFGQGTKVEIKR', 6.44);
